# SUBJECT OF TEST: P2X7 (Homo sapiens (Human))
# Sequence (Q99572 whole entry): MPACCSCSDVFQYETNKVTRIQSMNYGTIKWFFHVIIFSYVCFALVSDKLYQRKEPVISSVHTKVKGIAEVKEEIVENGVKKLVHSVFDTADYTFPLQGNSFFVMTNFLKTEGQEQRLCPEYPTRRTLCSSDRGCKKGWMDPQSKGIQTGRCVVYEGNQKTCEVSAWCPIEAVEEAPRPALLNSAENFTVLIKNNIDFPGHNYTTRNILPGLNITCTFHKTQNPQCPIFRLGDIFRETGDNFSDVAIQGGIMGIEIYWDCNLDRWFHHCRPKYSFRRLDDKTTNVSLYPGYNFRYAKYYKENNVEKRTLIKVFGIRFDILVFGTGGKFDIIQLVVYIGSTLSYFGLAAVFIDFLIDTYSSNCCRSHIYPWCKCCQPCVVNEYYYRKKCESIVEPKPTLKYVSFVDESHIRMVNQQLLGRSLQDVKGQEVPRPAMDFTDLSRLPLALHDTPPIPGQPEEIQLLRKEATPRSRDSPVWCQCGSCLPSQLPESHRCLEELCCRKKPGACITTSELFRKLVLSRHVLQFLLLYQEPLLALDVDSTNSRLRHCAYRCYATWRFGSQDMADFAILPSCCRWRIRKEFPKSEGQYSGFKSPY
# ASSAY EXPLANATION: P2X7 antagonism in human PBMCs (LPS + Bz-ATP induced IL-1β release, ELISA)
# Type: cell-based
# MEASUREMENT PARAMETERS: 10 μM compound, LPS 30 ng/ml + 0.5 mM Bz-ATP
Listed next: entries and their corresponding PBMC 10 μM (% control).

[
  {
    "COMPOUND": "C[C@@H]1c2ncn(-c3ccccn3)c2CCN1C(=O)c1cccc(C(F)(F)F)c1F (single isomer, unassigned) [Example 42]",
    "SUBJECT OF TEST": "P2X7 (Homo sapiens (Human))",
    "PBMC 10 μM (% control)": 5.8
  },
  {
    "COMPOUND": "CC1c2nnn(-c3ncccn3)c2CCN1C(=O)c1ccc(Cl)cc1Cl (stereo not shown) [Example 283]",
    "SUBJECT OF TEST": "P2X7 (Homo sapiens (Human))",
    "PBMC 10 μM (% control)": "−6.3"
  },
  {
    "COMPOUND": "CC1c2nn(COCC[Si](C)(C)C)c(-c3ncc(F)cn3)c2CCN1C(=O)c1cccc(C(F)(F)F)c1Cl (stereo not shown) [Example 303]",
    "SUBJECT OF TEST": "P2X7 (Homo sapiens (Human))",
    "PBMC 10 μM (% control)": "−1.6"
  },
  {
    "COMPOUND": "C[C@@H]1c2nnn(-c3ccc(F)cc3)c2C[C@H](C)N1C(=O)c1cccc(C(F)(F)F)c1Cl [Example 287]",
    "SUBJECT OF TEST": "P2X7 (Homo sapiens (Human))",
    "PBMC 10 μM (% control)": "−4.1"
  }
]
